# experimental.system: Full-length glucokinase (beta cell isoform) (Homo sapiens, UniProt P35557)
# Construct: Full-length glucokinase (beta cell isoform) was His-tagged at N-terminus; His tag (N); made in house; host or cells: E. coli BL21(DE3), pBCGK vector
# Sequence (P35557 whole entry, canonical isoform): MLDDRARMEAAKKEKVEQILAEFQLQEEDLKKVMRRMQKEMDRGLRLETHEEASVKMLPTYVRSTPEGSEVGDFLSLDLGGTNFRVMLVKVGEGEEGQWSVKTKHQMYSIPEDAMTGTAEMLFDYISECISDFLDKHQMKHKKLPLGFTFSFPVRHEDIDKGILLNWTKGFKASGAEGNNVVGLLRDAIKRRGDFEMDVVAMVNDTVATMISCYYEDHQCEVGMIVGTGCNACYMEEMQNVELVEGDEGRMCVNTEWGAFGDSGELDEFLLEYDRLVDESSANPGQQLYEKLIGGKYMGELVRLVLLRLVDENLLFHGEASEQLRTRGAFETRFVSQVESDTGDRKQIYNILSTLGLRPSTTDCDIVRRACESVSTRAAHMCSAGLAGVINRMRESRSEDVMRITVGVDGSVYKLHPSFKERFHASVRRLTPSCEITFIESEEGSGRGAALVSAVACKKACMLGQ
# assay.overview: Glucokinase activation assay (PK/LDH-coupled, NADH depletion at 340 nm)
# Format: biochemical
# run.conditions: % max activation = (Va/Vo−1)×100 from fit; 5 mM glucose, pH 7.1; single value or range where N>1; read-out: Maximum Activation (%)
value.kind: Emax (%)

CCS(=O)(=O)c1cnn([C@@H](CC2CCCC2)C(=O)Nc2ccn(C)n2)c1 80

(P) Cc1cnc(NC(=O)[C@H](CC2CCCC2)n2cnc(S(C)(=O)=O)c2)cn1
(Q) CC(C)S(=O)(=O)c1cn([C@@H](CC2CCCC2)C(=O)Nc2ccn(C)n2)cn1
Sorting ascending by Emax, which comes first: P or Q ? Provide the label of your selected option as the answer.
Q

(1) CS(=O)(=O)c1cnn([C@@H](CC2CCCC2)C(=O)Nc2ccc(C(F)(F)F)cn2)c1
(2) O=C(O)c1ccc(NC(=O)[C@H](CC2CCCC2)n2cnc(C(F)(F)F)n2)nc1
Sorting ascending by Emax, which comes first: 1 or 2 ? Provide the label of your selected option as the answer.
1
(1: 56%, 2: 150%)

Each recorded value in this set is attributed to patent US8389552B2.
